Tested on: OVCAR-8 ovarian
Experiment: NCI tumour cell line growth inhibition, 48 h; in the data active means GI50 below about 0.43 µM; inactive means the rest
Returns: one label drawn from active, inactive

Challenge: Dear colleague, could you share the recorded outcome for COc1ccc(-c2ccc(/C=N/n3cn[nH]c3=S)o2)c([N+](=O)[O-])c1 when you have a moment?
Response given: inactive

Challenge: Same again, this time with Cn1c2ccccc2c2c(=O)n(CCCC(=O)NCC(=O)OC(=NC3CCCCC3)NC3CCCCC3)c3c(-c4ccccc4)nnn3c21
Response given: inactive

Challenge: Same again, this time with COc1nccc(-c2c(-c3ccc(F)cc3)ncn2C2CCC(O)CC2)n1 (stereo unspecified)
Response given: inactive

Challenge: Same again, this time with CCCCCC(=O)N1c2ccccc2NC2=C(C(=O)CC(c3ccc(OC)c(OC)c3)C2)C1c1ccc(C(F)(F)F)cc1 (stereo unspecified)
Response given: inactive

Challenge: Same again, this time with O=[N+]([O-])c1cccc(-c2nc3sccn3c2-c2ccnc(NCCCNS(=O)(=O)c3ccc(F)cc3)n2)c1
Response given: inactive

Challenge: Same again, this time with C=C1C(=O)O[C@H]2[C@H]1CC/C(COC(=O)NCCc1ccc(OC)cc1)=C\CC[C@@]1(C)O[C@@H]21
Response given: inactive

Challenge: Same again, this time with COc1cc(/C=C2\CCCC3=C2NC(N)=NC3c2cc(OC)c(OC)c(OC)c2)cc(OC)c1OC (stereo unspecified)
Response given: active

Challenge: Same again, this time with CNC(=O)c1cc(Oc2ccc3nc(NC(=O)Nc4ccc(Cl)c(Cl)c4)sc3c2)ccn1
Response given: inactive

Challenge: Same again, this time with COc1ccc(C2CC(=O)Nc3c2c(C)nn3-c2nc3ccccc3[nH]2)cc1 (stereo unspecified)
Response given: inactive

Challenge: Same again, this time with Clc1nc(Cl)c2ncn(C/C=C\Cn3cnc4c(Cl)nc(Cl)nc43)c2n1
Response given: inactive

Challenge: Same again, this time with O=C(CNC(=O)c1cccc2ccccc12)Nc1ccccc1Oc1cccc(O)c1
Response given: inactive

Challenge: Same again, this time with COC(=O)C1=CN(CC2=CC(=O)C(C)=CC2=O)C=C(C(=O)OC)C1c1cccc(OC)c1OC
Response given: inactive

Challenge: Same again, this time with Cc1sc2ncnc(Sc3nc4ccccc4[nH]3)c2c1C
Response given: inactive

Challenge: Same again, this time with COC(=O)Nc1ccc2ccc3c(NC(=O)OC)ccc4ccc1c2c43 (tested in a mixture with another compound)
Response given: inactive

Challenge: Same again, this time with COc1cc(C)cc2c1OC(c1ccccc1)CC2=O (stereo unspecified)
Response given: inactive

Challenge: Same again, this time with COc1n[n+]([O-])c(C)cc1[N+](=O)[O-]
Response given: inactive

Values from PubChem BioAssay (NCI)
